B1: PTPLAD1 (parent)
chain: YINFRHLYKQRRRRYGQKKKKIH

# Variants of: B1
# experimental-protocol: protein stability index of a GFP-peptide fusion (GPS, HEK-293T) (PSI 1-6); higher = more stable;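 also: lentivirally expressed fusions sorted by FACS into six bins by GFP to DsRed ratio, PSI derived from sequencing read proportions per bin multiplied by bin number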
# particulars: c terminus: native
measured-parameter: protein stability index
Give bare numbers.

Would you please look over these solved cases?
| variant-spec | protein stability index |
| --- | --- |
| F4C | 2.03 |
| K9A | 3.21 |
| K18Q | 1.56 |
| K18E | 2.17 |
| Y15A | 2.12 |

Your task in this section: give protein stability index for each listed record.
1. K9D
2. G16T
3. K21W
4. Q17P
5. Q17V
6. K20E
7. Y8R
8. K18V

A:
1: 3.3; 2: 2.88; 3: 2.37; 4: 1.46; 5: 1.89; 6: 1.66; 7: 2.2; 8: 2.29

For each of the variants below, state protein stability index.
1. N3E
2. G16M

A:
1. 1.61
2. 2.27

I would be grateful if you could provide protein stability index for each of the following entries.
1. Q10K
2. R14A
3. K9P
4. K20H
5. R5C
6. R11N
7. K21I

A:
1. 2
2. 2.57
3. 2.27
4. 2.35
5. 1.45
6. 2.91
7. 2.14
